# Test details: small-molecule binders of probe aInhba, primary screen, biochemical, small-molecule microarray, 635/667 nm fluorescence (AID 1148);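 also: score merges 667nm spot fluorescence with signal-to-noise for antibody binding to printed compounds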
# Test parameters: higher = more signal
Overview of recorded composite z-score for various compounds
Could you keep your reply to the number by itself?

Example results:
Compound	composite z-score
CCOC(=O)NN=C1C[C@@H](O)[C@@H](O)[C@@H]2[C@@H]3C(=O)N(CC)C(=O)[C@@H]3CC[C@@H]12	-0.324
COCCOC(=O)N1C(=O)[C@@]2(c3cc(C#CCNC(N)=O)ccc31)[C@H](c1ccccc1OCCO)N1[C@H](c3ccccc3)[C@H](c3ccccc3)OC(=O)[C@H]1[C@@H]2C(=O)N1CCN(c2ncccn2)CC1	0.0497
CCCCCCc1nc(CCCc2cc3c(c(CCCCCC)n2)[Si](C(C)C)(C(C)C)O[C@H]3c2ccccc2)cc2c1[Si](C(C)C)(C(C)C)O[C@H]2c1ccccc1	-0.0972
O=C1C[C@@H](O)[C@@H](O)[C@@H]2[C@@H]3C(=O)N(C4CCCCC4)C(=O)[C@@H]3CC[C@H]12	-0.128
C=CCN1C(=O)[C@]2(O[C@H](CCn3cc(CCO)nn3)[C@@H]([Si](C)(C)c3ccc(OC)cc3)[C@@H]2C)c2cc(N3CCOC3=O)ccc21	-0.253

Dear colleague, I am looking for the recorded composite z-score of the following compound: CC(CCC(=O)OC[C@H]1O[C@H](C#Cc2ccccc2)C=C[C@@H]1Oc1ccc(C)cc1)=NOC[C@@H](O)COCc1ccco1
-0.446

Then what about the compound C=CCOC(=O)[C@H]1[C@@H]2C(=O)O[C@@H](c3ccccc3)[C@@H](c3ccccc3)N2[C@@H](c2ccc(OCCOC(=O)[C@H]3C[C@H]4C(=O)N[C@@H](Cc5ccccc5)C(=O)N4[C@H]3c3ccc(O)cc3)cc2)[C@]12C(=O)Nc1ccccc12 ?
-0.171

Then what about the compound CC(=O)OC[C@H]1O[C@H](C#CCCCc2ccccc2)C=C[C@@H]1OC(C)=O ?
0.322

Then what about the compound COc1ccc(OC[C@H]2Cc3c(-c4ccccc4)nc4c(c3CO2)CN(CCOc2ccccc2)CC4)cc1 ?
0.109

Values were extracted from PubChem BioAssay.
